Record form. Attribute: kon. Fill in for each entry.
# SYSTEM_UNDER_TEST: T1, pCD163-SRCR4-7-huFc (porcine, UniProt Q2VL90 372-818, limits assumed)
# T1 construct: also called pCD163:SRCR4-7-Fc; pCD163-SRCR4-7-Fc; not shown: human Fc (huFc)
# EXPERIMENTAL_DETAILS: SPR (Biacore 3000), antigen amine-coupled on CM5, VHH injected, pH 7.4

* VHH 016 (2H11) (VHH, Llama single domain antibody; also called 77(#16); VHCDR3 77(#16); not shown: tags: c-myc tag in periplasmic extract (ELISA, FACS); FLAG and His tags in purified VHH (SPR, infection assays)) VHH: EVQLVESGGGLVQAGGSLRLSCAASGRTFAPGSMGWFRQAPGKEREFVAAHRWSGSAYYADYADSVEGRFTISRDYAKNMVYLQMNSLKPGDTAVYYCAAGVGSAAQYTYWGRGTQVTVSS | 224000 M⁻¹ s⁻¹

State the recorded kon for this entry: VHH 015 (2G01) (VHH, Llama single domain antibody; also called 150(#15); VHCDR3 150(#15); not shown: tags: c-myc tag in periplasmic extract (ELISA, FACS); FLAG and His tags in purified VHH (SPR, infection assays)) VHH: QVQLVESGGGLVQAGDTLRLSCTASGRTFSSYSMGWFRQAPGKEREFVAAITWNGYITNYADSVKGRFTISRDNTKNTVFLQMNSLKPEETAVYYCAATTFSTTSPISRTYNYWGPGTQVTVSS
551000 M⁻¹ s⁻¹
